B1: tRNA (parent)
chain: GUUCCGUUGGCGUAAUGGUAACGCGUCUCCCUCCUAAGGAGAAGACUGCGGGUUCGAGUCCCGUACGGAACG

Variants of: B1
Assay: yeast fitness relative to wild type (ratio to wild type); higher = fitter; tRNA-Arg(CCU), competitive growth, 37 C, YPD
Variants at the floor of the assay were thinned out.
QUANTITY_MEASURED: yeast fitness

CHANGES	ENDPOINT_RESULT
C27G C31U C49G U59A	≤ 0.5

Incoming: Identify yeast fitness associated with the variant C31A U35A C55G G58C
Outgoing: ≤ 0.5

Incoming: Identify yeast fitness associated with the variant U2A G9A G23A C29G
Outgoing: ≤ 0.5

This collection of values is drawn from the RNAGym collection of RNA variant scans (doi:10.1126/science.aae0568).
